Reference source: the supplement of paper PMC7877785

Assay: self-splicing fitness, log relative to wild type (ln ratio); higher = more splicing; Tetrahymena group I intron in knt gene, E. coli kanamycin selection, DiMSum; sequences stand for … in CUCUCU…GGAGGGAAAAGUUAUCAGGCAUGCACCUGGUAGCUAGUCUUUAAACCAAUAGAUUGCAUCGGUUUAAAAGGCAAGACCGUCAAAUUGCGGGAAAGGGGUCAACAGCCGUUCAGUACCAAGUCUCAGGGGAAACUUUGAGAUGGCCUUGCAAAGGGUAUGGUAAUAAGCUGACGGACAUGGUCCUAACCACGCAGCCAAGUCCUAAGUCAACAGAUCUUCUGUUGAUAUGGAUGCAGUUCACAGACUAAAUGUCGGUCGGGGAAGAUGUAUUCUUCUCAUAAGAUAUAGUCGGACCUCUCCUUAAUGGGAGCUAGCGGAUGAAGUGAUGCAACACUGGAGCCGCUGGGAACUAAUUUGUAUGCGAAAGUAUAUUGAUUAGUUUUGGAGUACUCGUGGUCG;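 also: selection with 25 µg/mL kanamycin versus none on LB agar overnight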
Settings: 30 °C
readout.type: self-splicing fitness (ln)

Per the records, this sequence ( `UUGAAGCAAUAUUACGCUAU` ) has self-splicing fitness (ln) equal to -2.7

Item: `UAAAAGCAAUAUUACGAAUA` | self-splicing fitness (ln): -0.61

self-splicing fitness (ln) reported for this sequence `AGUAAGCAAUAUUACGUGGG` : -3.66

Record `CCCAAGCAAUAUUACGCCUG` . Reported self-splicing fitness (ln): -3.12

Recorded result, `UAUUAGCAAUAUUACGUAUG` , self-splicing fitness (ln): -1.65

The sequence `CUAUAGCAAUAUUACGUGUC` showed self-splicing fitness (ln) equal to -4.02

Documented self-splicing fitness (ln) of `ACAAAGCAAUAUUACGGAGC` : -3.17

For `GGCAAGCAAUAUUACGUUUU` the sequence record lists self-splicing fitness (ln) as -0.0842

***
The reported value for `UGAAAGCAAUAUUACGCACA` in terms of self-splicing fitness (ln) is -0.903

Measured self-splicing fitness (ln), `GCAAAGCAAUAUUACGCCCU` : -0.279

Per the record, `AUGGAGCAAUAUUACGUGUC` has self-splicing fitness (ln) of -4.57

get_value(item= `UGGAAGCAAUAUUACGGACA` , readout=self-splicing fitness (ln)) returns -1.03

The reported value for `UCUUAGCAAUAUUACGCGCA` in terms of self-splicing fitness (ln) is -0.966

// field: self-splicing fitness (ln); key: `GCUCAGCAAUAUUACGGGUA` ; value = -0.401

Reported self-splicing fitness (ln) ( `GACGAGCAAUAUUACGAUGG` ) = -3.7

---

Experiment: self-splicing fitness, log relative to wild type (ln ratio); higher = more splicing; Tetrahymena group I intron in knt gene, E. coli kanamycin selection, DiMSum; sequences stand for … in CUCUCU…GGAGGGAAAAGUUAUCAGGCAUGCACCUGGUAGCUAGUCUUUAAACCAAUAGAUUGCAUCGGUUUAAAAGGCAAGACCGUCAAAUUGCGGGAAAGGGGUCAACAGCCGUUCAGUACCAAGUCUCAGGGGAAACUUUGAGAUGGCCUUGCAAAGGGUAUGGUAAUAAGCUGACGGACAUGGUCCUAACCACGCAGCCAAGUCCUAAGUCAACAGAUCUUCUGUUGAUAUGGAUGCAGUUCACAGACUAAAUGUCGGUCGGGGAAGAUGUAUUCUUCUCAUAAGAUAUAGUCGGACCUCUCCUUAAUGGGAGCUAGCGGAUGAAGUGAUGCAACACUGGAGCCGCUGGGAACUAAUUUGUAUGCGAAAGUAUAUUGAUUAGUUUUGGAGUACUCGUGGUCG
Details: 37 °C
readout.type: self-splicing fitness (ln)
Write the value as a bare number.

Consider the reported self-splicing fitness (ln) for these sequences:
get_value(item= `CCUUAGCAAUAUUACGGUAA` , readout=self-splicing fitness (ln)) returns -2.59

Memo: `AACAAGCAAUAUUACGCAUC` , reported self-splicing fitness (ln): -1.77

---
Looking up `GAAAAGCAAUAUUACGUCGC` , I found its self-splicing fitness (ln) recorded as -0.835

Briefly, self-splicing fitness (ln) measured for `AGGCAGCAAUAUUACGAUAA` : -2.3

# self-splicing fitness (ln) of `GGAUAGCAAUAUUACGACUC` = 0.298

---

Assay: self-splicing fitness, log relative to wild type (ln ratio); higher = more splicing; Tetrahymena group I intron in knt gene, E. coli kanamycin selection, DiMSum; sequences stand for … in CUCUCU…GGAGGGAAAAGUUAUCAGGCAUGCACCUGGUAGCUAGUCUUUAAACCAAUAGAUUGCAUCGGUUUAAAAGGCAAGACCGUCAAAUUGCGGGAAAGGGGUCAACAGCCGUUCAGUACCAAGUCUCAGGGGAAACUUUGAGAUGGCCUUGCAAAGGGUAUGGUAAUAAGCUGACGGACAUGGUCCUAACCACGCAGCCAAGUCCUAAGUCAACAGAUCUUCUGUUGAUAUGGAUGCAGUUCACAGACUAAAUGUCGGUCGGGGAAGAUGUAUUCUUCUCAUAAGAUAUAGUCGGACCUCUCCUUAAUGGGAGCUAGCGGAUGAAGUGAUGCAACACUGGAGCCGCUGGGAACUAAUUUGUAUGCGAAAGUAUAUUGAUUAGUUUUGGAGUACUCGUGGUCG
Details: 30 °C
The label depends only on self-splicing fitness (ln): Condition met if it is at least -2, Condition not met if it is smaller.

Identify whether the reported self-splicing fitness (ln) of the following sequence is -2 or greater: `UGAAAGCAAUAUUACGCUAG`
Condition met

self-splicing fitness (ln) >= -2 for `GAAGAGCAAUAUUACGCGGC` ?
Condition not met

Does `UAUUAGCAAUAUUACGUUCU` have a reported self-splicing fitness (ln) of at least -2?
Condition not met

Confirm if self-splicing fitness (ln) reported for the sequence `CGUUAGCAAUAUUACGAUGG` is -2 or above.
Condition met

Textbook exercise: given the entry `CAUUAGCAAUAUUACGUACC` , state whether its self-splicing fitness (ln) is greater than or equal to -2.
Condition not met

New cases:
Is it the case that `UUAAAGCAAUAUUACGUAUU` has self-splicing fitness (ln) reaching or exceeding -2?
Condition not met

Does the reported self-splicing fitness (ln) for `UCUAAGCAAUAUUACGGCGG` fall at or above the -2 mark?
Condition met

self-splicing fitness (ln) >= -2 for `UGUGAGCAAUAUUACGUUCG` ?
Condition not met

Check if self-splicing fitness (ln) >= -2 (inclusive). Item: `UCCAAGCAAUAUUACGAACA`
Condition met

Tell me whether self-splicing fitness (ln) is at least -2 here: `CCAUAGCAAUAUUACGAUAU`
Condition not met

---

Assay: self-splicing fitness, log relative to wild type (ln ratio); higher = more splicing; Tetrahymena group I intron in knt gene, E. coli kanamycin selection, DiMSum; sequences stand for … in CUCUCU…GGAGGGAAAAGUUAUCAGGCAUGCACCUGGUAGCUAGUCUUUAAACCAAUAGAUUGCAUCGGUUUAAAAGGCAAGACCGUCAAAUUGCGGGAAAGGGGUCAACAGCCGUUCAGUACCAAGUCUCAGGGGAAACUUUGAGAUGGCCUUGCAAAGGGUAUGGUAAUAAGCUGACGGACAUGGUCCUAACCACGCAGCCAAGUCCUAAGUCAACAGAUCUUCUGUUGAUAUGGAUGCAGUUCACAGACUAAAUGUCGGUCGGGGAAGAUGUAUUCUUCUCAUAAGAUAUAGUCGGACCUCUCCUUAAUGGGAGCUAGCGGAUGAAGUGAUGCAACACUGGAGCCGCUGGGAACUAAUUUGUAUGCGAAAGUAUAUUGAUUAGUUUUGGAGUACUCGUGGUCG
Settings: 30 °C
readout.type: self-splicing fitness (ln)
Reply with the value as a number alone.

self-splicing fitness (ln) reading for `AGAUAGCAAUAUUACGGGAU` : -1.24

Just so you know, measured self-splicing fitness (ln) for `GAGUAGCAAUAUUACGUUUA` came out at -3.09

The sequence `UUUAAGCAAUAUUACGGAUA` showed self-splicing fitness (ln) equal to -1.12

Others:
Query `GUAUAGCAAUAUUACGUAAG` yields self-splicing fitness (ln) of -1.48

Summary for this sequence, `CCUAAGCAAUAUUACGUCAA` : self-splicing fitness (ln) is -2.65

// self-splicing fitness (ln) value for `CGUAAGCAAUAUUACGGAGC` : -4.17

# sequence `AAAAAGCAAUAUUACGUCAU` ; its self-splicing fitness (ln) = -2.2

Lab book: self-splicing fitness (ln) of `GCACAGCAAUAUUACGACAC` noted as -0.345

---

Assay: self-splicing fitness, log relative to wild type (ln ratio); higher = more splicing; Tetrahymena group I intron in knt gene, E. coli kanamycin selection, DiMSum; sequences stand for … in CUCUCU…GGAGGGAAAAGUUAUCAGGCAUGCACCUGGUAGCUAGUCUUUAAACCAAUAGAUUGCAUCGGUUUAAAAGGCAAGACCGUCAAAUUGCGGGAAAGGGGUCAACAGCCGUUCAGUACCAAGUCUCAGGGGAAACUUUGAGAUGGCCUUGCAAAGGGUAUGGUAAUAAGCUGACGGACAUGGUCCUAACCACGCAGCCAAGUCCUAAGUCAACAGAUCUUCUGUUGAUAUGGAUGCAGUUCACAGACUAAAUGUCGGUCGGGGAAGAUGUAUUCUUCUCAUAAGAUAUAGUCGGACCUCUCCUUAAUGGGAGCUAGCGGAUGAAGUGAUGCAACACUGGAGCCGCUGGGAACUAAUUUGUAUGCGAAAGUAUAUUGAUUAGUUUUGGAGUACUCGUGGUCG
Conditions: 30 °C
readout.type: self-splicing fitness (ln)

Field self-splicing fitness (ln) (entry `AGACAGCAAUAUUACGUACC` ) reads -0.256

In plain terms, `CACAAGCAAUAUUACGUGGU` has a documented self-splicing fitness (ln) of -4.1

Entry under test: `GUACAGCAAUAUUACGCUUC` . Its self-splicing fitness (ln) was -2.54

---
Entry `AAUGAGCAAUAUUACGACUG` ; self-splicing fitness (ln) = -3.77

Memo: `ACACAGCAAUAUUACGCGCC` , reported self-splicing fitness (ln): -0.614

Entry `UUAAAGCAAUAUUACGCCAG` — recorded self-splicing fitness (ln) = 0.134

Kindly note the recorded self-splicing fitness (ln) for `AGGAAGCAAUAUUACGACUU` , which is 0.00163

Measured self-splicing fitness (ln), `AGGAAGCAAUAUUACGAACC` : -0.283
